Tested on: PYK2;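 note: KINOMEscan kinase panel screen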
Construct: gene PTK2B
RUN CONDITIONS: concentration: 1 μM, replicates: in singlicate; n = 1
Threshold rule: %Inh greater than or equal to 8% is yes; below that, no.

COMPOUND	LABEL VALUE
O=C(Nc1cccc(-c2nn3ncccc3c2-c2ccnc(Nc3cccc(C(F)(F)F)c3)n2)c1)c1c(F)cccc1F	yes
COc1ccc(Nc2nccc(N3CCC(NC(=O)Nc4cccc(C(C)=O)c4)C3)n2)cc1 (centres unmarked)	no
NS(=O)(=O)c1cccc(-c2ccc3nccc(-c4cccc(S(N)(=O)=O)c4)c3c2)c1	yes
Cc1cccc(-c2nc(Nc3ccc4ncsc4c3)c3ccccc3n2)n1	no
Cc1c2ccc(N(C)c3ccnc(Nc4cccc(S(N)(=O)=O)c4)n3)cc2nn1Cc1ccccc1.Cl.Cl	yes
O=C1Cc2cc(Nc3nc(NCc4cccc(S(=O)(=O)C(F)(F)F)c4)ncc3C(F)(F)F)ccc2N1	no
Fc1ccc(-c2ncn(CCCN3CCOCC3)c2-c2cccnc2)cc1	no
CSc1ccc(-c2cc3ncnc(SCC(=O)O)c3s2)cc1	yes
NCC(NC(=O)c1cc(-c2cn[nH]c2)c(-c2ccnc3[nH]ccc23)s1)c1ccccc1.O=C(O)C(F)(F)F.O=C(O)C(F)(F)F (centres unmarked)	no
c1ccc(-c2n[nH]cc2-c2ccnc3ccccc23)nc1	yes
O=C(NCCCN1CCOCC1)c1cccc(Nc2nccc(Nc3ccc(Oc4ccccc4)cc3)n2)c1	no
COc1ccc(CNC(=O)NC2CCN(c3ccnc(Nc4ccc(OC)cc4)n3)C2)cc1 (centres unmarked)	no
CN(C(=O)c1ccc(-c2cc(-c3c[nH]nc3-c3ccccn3)ccn2)cc1)C1CCOCC1	no
[2H]C([2H])(c1cccc(C(F)(F)F)c1C)n1ccn2c(=O)nc(N3CCOCC3)cc12	no
CCCCCc1nc2c(N)ncnc2n1CCCCC	yes
CC(=O)Nc1ccc(COc2ccc(Nc3ccnc4cc(-c5ccccn5)ccc34)cc2)cc1.Cl	no
